Every entry's value here was drawn from paper PMC9961271.

Molecular target: UniProt:P41146
Sequence (P41146 whole entry): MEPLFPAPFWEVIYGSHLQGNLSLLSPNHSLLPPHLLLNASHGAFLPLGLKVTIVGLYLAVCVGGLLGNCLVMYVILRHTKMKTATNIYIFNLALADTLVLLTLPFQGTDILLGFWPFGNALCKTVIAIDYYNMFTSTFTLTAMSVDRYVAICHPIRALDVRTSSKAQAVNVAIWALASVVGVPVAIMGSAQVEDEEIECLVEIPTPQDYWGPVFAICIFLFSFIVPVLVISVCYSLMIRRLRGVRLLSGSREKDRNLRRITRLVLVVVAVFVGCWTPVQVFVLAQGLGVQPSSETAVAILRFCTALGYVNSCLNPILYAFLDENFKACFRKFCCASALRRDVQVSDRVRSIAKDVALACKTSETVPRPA
Assay: [35S]-GTPγS binding assay, hNOP/CHO membranes
Experimental readout: EC50

Query string: Name the reported EC50 value associated with the compound CC[C@]1(c2cc(NS(=O)(=O)C3CC3)ccc2F)[C@@H]2CN(CC3(O)Cc4ccccc4C3)C[C@@H]21
Result string: > 10 µM

###

Assay: Pharmacokinetics after a single oral administration (plasma, LC-MS/MS)
Details: male, Crl:CD1 (ICR), mouse, plasma, 2 mg/kg, Tmax, 2 mg/kg p.o., mice
Experimental readout: Tmax (h)
Form entry: value (h) — number only.

Query string: Entry CC[C@]1(c2cc(NS(=O)(=O)C3CC3)ccc2F)[C@@H]2CN(CC3(O)Cc4ccccc4C3)C[C@@H]21 has what Tmax?
Result string: 2

###

Test: Pharmacokinetics after a single oral administration (plasma, LC-MS/MS)
Details: male, Crl:CD1 (ICR), mouse, in vivo, 4 mg/kg
Experimental readout: concentration at 4 h
Please answer in the form of a number followed by its unit of measurement.

Query string: Return reported concentration at 4 h; argument: CC[C@]1(c2cc(NS(=O)(=O)C3CC3)ccc2F)[C@@H]2CN(CC3(O)Cc4ccccc4C3)C[C@@H]21
Result string: 103 ng/mL

###

Assay: Pharmacokinetics after a single oral administration (plasma, LC-MS/MS)
Conditions: male, Crl:CD1 (ICR), mouse, in vivo, 2 mg/kg
Experimental readout: concentration at 0.5 h (µg/mL)
Use µg/mL as the unit, but write only the number.

Query string: Please report the recorded concentration at 0.5 h for CC[C@]1(c2cc(NS(=O)(=O)C3CC3)ccc2F)[C@@H]2CN(CC3(O)Cc4ccccc4C3)C[C@@H]21 [UD-030] .
Result string: 0.0118

###

Assay: Pharmacokinetics after a single oral administration (plasma, LC-MS/MS)
Settings: male, Crl:CD1 (ICR), mouse, in vivo, 2 mg/kg
Experimental readout: concentration at 8 h (ng/mL)
State just the number; it will be interpreted in ng/mL.

Query string: Which concentration at 8 h reading was recorded for the compound CC[C@]1(c2cc(NS(=O)(=O)C3CC3)ccc2F)[C@@H]2CN(CC3(O)Cc4ccccc4C3)C[C@@H]21 ?
Result string: 18.8

###

Test: Pharmacokinetics after a single oral administration (plasma, LC-MS/MS)
Conditions: male, Crl:CD1 (ICR), mouse, in vivo, 4 mg/kg
Experimental readout: concentration at 8 h

Query string: Endpoint output: concentration at 8 h of CC[C@]1(c2cc(NS(=O)(=O)C3CC3)ccc2F)[C@@H]2CN(CC3(O)Cc4ccccc4C3)C[C@@H]21 . Value?
Result string: 69.4 ng/mL

###

Test: Pharmacokinetics after a single oral administration (plasma, LC-MS/MS)
Conditions: male, Crl:CD1 (ICR), mouse, plasma, 1 mg/kg, Tmax, 1 mg/kg p.o., mice
Experimental readout: Tmax (h)
Note: unit h is implicit; provide only the numeric part.

Query string: Recorded Tmax for CC[C@]1(c2cc(NS(=O)(=O)C3CC3)ccc2F)[C@@H]2CN(CC3(O)Cc4ccccc4C3)C[C@@H]21 , please?
Result string: 2

###

Experiment: Pharmacokinetics after a single oral administration (plasma, LC-MS/MS)
Settings: male, Crl:CD1 (ICR), mouse, in vivo, 1 mg/kg
Experimental readout: concentration at 24 h (ng/mL)
Write the value in ng/mL as a bare number.

Query string: Look up concentration at 24 h for this compound: CC[C@]1(c2cc(NS(=O)(=O)C3CC3)ccc2F)[C@@H]2CN(CC3(O)Cc4ccccc4C3)C[C@@H]21
Result string: 0.358
